target: UniProt:P51449; assay: RORγ Gal4 Reporter Gene Assay; format: cell-based
Sequence (P51449 whole entry, looked up, the tested form may be a part): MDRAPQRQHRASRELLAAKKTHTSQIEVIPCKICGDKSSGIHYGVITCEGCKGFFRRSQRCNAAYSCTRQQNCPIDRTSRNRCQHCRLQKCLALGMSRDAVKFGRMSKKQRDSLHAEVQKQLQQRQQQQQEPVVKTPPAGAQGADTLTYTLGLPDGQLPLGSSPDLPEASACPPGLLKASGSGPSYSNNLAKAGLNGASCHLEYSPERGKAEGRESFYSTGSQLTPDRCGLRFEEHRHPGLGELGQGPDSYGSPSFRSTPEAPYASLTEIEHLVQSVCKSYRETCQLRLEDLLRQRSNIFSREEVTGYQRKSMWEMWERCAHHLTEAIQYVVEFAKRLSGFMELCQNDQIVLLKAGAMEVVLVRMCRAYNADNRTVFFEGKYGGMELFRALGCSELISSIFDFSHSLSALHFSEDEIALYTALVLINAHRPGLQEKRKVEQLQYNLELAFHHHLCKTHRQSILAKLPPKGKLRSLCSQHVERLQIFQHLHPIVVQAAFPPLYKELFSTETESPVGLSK
Metric Name: pIC50 (FF)

// worked examples, pIC50 (FF) included
>  <Compound>
CC(C)(C)c1cc(-c2sc(C(=O)NC3CCOCC3)nc2CC2CCCCC2)cc(C2(C)CC2)c1

>  <Metric Name>
pIC50 (FF)

>  <Reported>
7.0/7.3/7.5

$$$$
>  <Compound>
CC(C)(C)NS(=O)(=O)c1ccc(-c2sc(C(=O)NC3CSC3)nc2CC2CCCCC2)cc1C(C)(C)O

>  <Metric Name>
pIC50 (FF)

>  <Reported>
7.3/7.9/8.0

$$$$
>  <Compound>
CC(C)(C)NS(=O)(=O)c1ccc(-c2sc(C(=O)NCCN3CCOCC3)nc2CC2CCCCC2)cc1C(C)(C)O

>  <Metric Name>
pIC50 (FF)

>  <Reported>
5.8/6.7/6.7

$$$$
>  <Compound>
CC(C)(O)CC(=O)Nc1nc(CC2CCCCC2)c(-c2ccc(S(=O)(=O)NC(C)(C)C)c(C(F)(F)F)c2)s1

>  <Metric Name>
pIC50 (FF)

>  <Reported>
6.6/7.5/7.8

$$$$

Request: What value of pIC50 (FF) has been reported for the following compound? `CC(C)(CNC(=O)c1nc(CC2CCCCC2)c(-c2cc(C(C)(C)C)cc(C3(C)CC3)c2)o1)C(=O)O`
Response: 5.9/6.6/6.6

Request: Then what about the compound `CC(C)(C)c1cc(-c2oc(C(=O)N[C@H]3C[C@H](C(=O)O)C3)nc2CC2CCCCC2)cc(C2(C)CC2)c1` ?
Response: 6.0/6.8/7.0

Request: Now consider `C[C@H](NS(=O)(=O)c1ccc(-c2sc(C(=O)NCC(C)(C)O)nc2CC2CCC2)c(Cl)c1)C(F)(F)F` and answer again.
Response: nt/7.9/7.9

Request: Field entry: `CC(C)(C)NS(=O)(=O)c1ccc(-c2sc(C(=O)N3CC4(CC[S+]([O-])CC4)C3)nc2CC2CCCCC2)c2ccccc12`
Response: 6.4/7.8/7.9

Request: Likewise for `CC1(NC(=O)c2cc(-c3sc(C(=O)NC4CCS(=O)(=O)CC4)nc3CC3CCCCC3)cc(C3(C)CC3)c2)COC1` ?
Response: nt/7.9/7.9

Request: Try `CC(C)(O)c1cc(-c2sc(C(=O)N[C@H]3C[C@H](C(=O)O)C3)nc2CC2CCCCC2)cc(C2(C)CC2)c1` next.
Response: 6.5/7.1/7.1

Request: What do you get for `CC(C)(CO)NS(=O)(=O)c1ccc(-c2sc(C(=O)N3CC4(CCS(=O)(=O)CC4)C3)nc2CC2CCCCC2)c2ccccc12` ?
Response: 6.2/7.1/7.1
